# System: Candida albicans SC5314
# measurement.notes: Antifungal MIC80/MFC assay, fungal pathogen panel
*1 amine or outer side, *2 acyl side, *3 side chain or, on linkers, in order; H or OH if unused. Where a SMILES comes first, the peptide text is derived from it. [ ]: non-standard residue; d: D form. X2 = CC[C@H](C)C[C@H](C)C[C@H](C)C[C@H](N[*:1])C(=O)[*:2]; X1 = CC[C@@H](C)[C@@H](O[*:1])C(=O)[*:2]; NMeVal(β-OH) = CN[C@H](C(=O)O)C(C)(C)O; aIle = CC[C@@H](C)[C@H](N)C(=O)O; NMeV = CN[C@H](C(=O)O)C(C)C; Sar = CNCC(=O)O
assay.endpoint: MFC (µM)

{"columns": ["molecule", "assay.endpoint", "rel", "obs.value"],
 "data": [
  ["CC[C@H](C)C[C@H](C)C[C@H](C)C[C@@H]1NC(=O)[C@H](C(C)C)N(C)C(=O)[C@@H]([C@H](C)CC)OC(=O)[C@H](C(C)(C)O)N(C)C(=O)[C@H](CC(C)C)NC(=O)[C@H](C(C)C)N(C)C(=O)[C@H]([C@H](C)CC)NC(=O)[C@@H]2CCCN2C(=O)CN(C)C1=O [Compound 1, persephacin] (cyclo(L[NMeVal(β-OH)][X1][NMeV][X2][Sar]P[aIle][NMeV]))", "MFC", "=", 1.25],
  ["CC[C@H](C)C[C@H](C)CCCCCCCCC(=O)N[C@H]1C[C@@H](O)[C@@H](NCCN)NC(=O)[C@@H]2[C@@H](O)CCN2C(=O)[C@H]([C@H](O)CCN)NC(=O)[C@H]([C@H](O)[C@@H](O)c2ccc(O)cc2)NC(=O)[C@@H]2C[C@@H](O)CN2C(=O)[C@H]([C@@H](C)O)NC1=O [CASP, caspofungin]", "MFC", "=", 0.625],
  ["CCC(C)n1ncn(-c2ccc(N3CCN(c4ccc(OCC5COC(Cn6cncn6)(c6ccc(Cl)cc6Cl)O5)cc4)CC3)cc2)c1=O (stereo not shown) [ITC, itraconazole]", "MFC", ">", 10],
  ["C[C@@H]1[C@H](O)[C@@H](C)/C=C/C=C/C=C/C=C/C=C/C=C/C=C/[C@H](O[C@@H]2O[C@H](C)[C@@H](O)[C@H](N)[C@@H]2O)C[C@@H]2O[C@](O)(C[C@@H](O)C[C@@H](O)[C@H](O)CC[C@@H](O)C[C@@H](O)CC(=O)O[C@H]1C)C[C@H](O)[C@H]2C(=O)O [AMB, amphotericin B]", "MFC", "=", 2.5]
]}

* * *

# Test system: Aspergillus fumigatus NRRL5109
# measurement.notes: Antifungal MIC80/MFC assay, fungal pathogen panel
*1 amine or outer side, *2 acyl side, *3 side chain or, on linkers, in order; H or OH if unused. Where a SMILES comes first, the peptide text is derived from it. [ ]: non-standard residue; d: D form. X2 = CC[C@H](C)C[C@H](C)C[C@H](C)C[C@H](N[*:1])C(=O)[*:2]; X1 = CC[C@@H](C)[C@@H](O[*:1])C(=O)[*:2]; NMeVal(β-OH) = CN[C@H](C(=O)O)C(C)(C)O; aIle = CC[C@@H](C)[C@H](N)C(=O)O; NMeV = CN[C@H](C(=O)O)C(C)C; Sar = CNCC(=O)O
assay.endpoint: MIC80 (µM)

{"columns": ["compound", "assay.endpoint", "rel", "obs.value"],
 "data": [
  ["CC[C@H](C)C[C@H](C)C[C@H](C)C[C@@H]1NC(=O)[C@H](C(C)C)N(C)C(=O)[C@@H]([C@H](C)CC)OC(=O)[C@H](C(C)(C)O)N(C)C(=O)[C@H](CC(C)C)NC(=O)[C@H](C(C)C)N(C)C(=O)[C@H]([C@H](C)CC)NC(=O)[C@@H]2CCCN2C(=O)CN(C)C1=O [Compound 1, persephacin] (cyclo(L[NMeVal(β-OH)][X1][NMeV][X2][Sar]P[aIle][NMeV]))", "MIC80", "=", 2.5],
  ["CC[C@H](C)C[C@H](C)CCCCCCCCC(=O)N[C@H]1C[C@@H](O)[C@@H](NCCN)NC(=O)[C@@H]2[C@@H](O)CCN2C(=O)[C@H]([C@H](O)CCN)NC(=O)[C@H]([C@H](O)[C@@H](O)c2ccc(O)cc2)NC(=O)[C@@H]2C[C@@H](O)CN2C(=O)[C@H]([C@@H](C)O)NC1=O", "MIC80", ">", 10],
  ["CCC(C)n1ncn(-c2ccc(N3CCN(c4ccc(OCC5COC(Cn6cncn6)(c6ccc(Cl)cc6Cl)O5)cc4)CC3)cc2)c1=O (stereo not shown)", "MIC80", "=", 1.25],
  ["C[C@@H]1[C@H](O)[C@@H](C)/C=C/C=C/C=C/C=C/C=C/C=C/C=C/[C@H](O[C@@H]2O[C@H](C)[C@@H](O)[C@H](N)[C@@H]2O)C[C@@H]2O[C@](O)(C[C@@H](O)C[C@@H](O)[C@H](O)CC[C@@H](O)C[C@@H](O)CC(=O)O[C@H]1C)C[C@H](O)[C@H]2C(=O)O", "MIC80", "=", 2.5]
]}
